assay: NCI Yeast Anticancer Drug Screen. Data for the mgt1 strain (AID 153); conditions: S. cerevisiae mgt1 mutant growth inhibition; at 100.0 µM
About 79,000 compounds went through this panel and 15% of them were active in at least one assay; those are over-represented in the sample as a whole. Calls of active or inactive are those of the source. Cut-off read from the data, not from the text of the source: active = growth inhibition above about 70%; inactive = the rest.
// allowed return values: 1 for active, -1 for inactive

# molecule, class_label
measured = [
    ("CC(=O)CCC1=C(C)C(=O)C(=O)C(C)=C1O", 1),
]

(Q) Called result for O=[N+]([O-])[O][Sn]([O][Sn]([O][N+](=O)[O-])([c]1ccccc1)[c]1ccccc1)([c]1ccccc1)[c]1ccccc1
(A) 1

(Q) Here is the next molecule: CCOC(=O)Nc1ccc(C)c(NC(=O)OCC)c1
(A) -1

(Q) Here is the next molecule: NC(=S)N1N=C2c3ccccc3CC[C@@H]2[C@@H]1c1ccccc1
(A) 1

(Q) Here is the next molecule: COC(=O)C(Cl)(Cl)N=Nc1c(Cl)cc(Cl)c(C)c1Cl
(A) 1

Every entry's value here was drawn from PubChem BioAssay (NCI).
